# System: Escherichia coli TOP10
# PROTOCOL DESCRIPTION: shrunken log2 fold change of peptide-encoding DNA abundance (4.5 h post-induction vs induction); higher = less antimicrobial activity (less host growth inhibition)
# RUN CONDITIONS: time post-induction: 4.5 h; library: site-saturation at positions 5, 18, 19, 20
PARAMETER: shrunken log2 fold change
Numbers only.

Here are 3 sequences together with their reported answers.
RRIRFRPPRLPRPRPRPPMWPRP; 0.486
RRIRRRPPRLPRPRPRPAQHPRP; 0.369
RRIRYRPPRLPRPRPRPIYNPRP; 0.36

Moving on to another sequence below.
Read the entry `RRIRHRPPRLPRPRPRPHCCPRP` and write its reported shrunken log2 fold change. -0.156

* * *

# System: Escherichia coli TOP10
# PROTOCOL DESCRIPTION: shrunken log2 fold change of peptide-encoding DNA abundance (4.5 h post-induction vs induction); higher = less antimicrobial activity (less host growth inhibition)
# RUN CONDITIONS: time post-induction: 4.5 h; library: site-saturation at positions 5, 18, 19, 20
PARAMETER: shrunken log2 fold change

These solved cases illustrate the format of a correct answer.
RRIRPRPPRLPRPRPRPITRPRP; 0.31
RRIRFRPPRLPRPRPRPYKCPRP; -0.208
RRIRLRPPRLPRPRPRPNGQPRP; 0.00827
RRIRTRPPRLPRPRPRPMKMPRP; 0.0821

Dear colleague, could you please provide shrunken log2 fold change for the sequences listed below?
1. RRIRFRPPRLPRPRPRPGTSPRP
2. RRIRWRPPRLPRPRPRPSETPRP
3. RRIRNRPPRLPRPRPRPPSTPRP
4. RRIRMRPPRLPRPRPRPFFVPRP
5. RRIRFRPPRLPRPRPRPCSKPRP
6. RRIRGRPPRLPRPRPRPVLKPRP

[-0.0716, 0.0208, 0.0609, -0.0457, -0.152, 0.402]

* * *

# System: Escherichia coli TOP10;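 further: peptides expressed intracellularly from a pBAD plasmid library in pooled LB shake-flask culture, induced with 0.3% L-arabinose, DNA abundance read by NGS, three biological replicates, DESeq2 with apeglm shrinkage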
# PROTOCOL DESCRIPTION: shrunken log2 fold change of peptide-encoding DNA abundance (4.5 h post-induction vs induction); higher = less antimicrobial activity (less host growth inhibition)
# RUN CONDITIONS: time post-induction: 4.5 h; library: site-saturation at positions 5, 18, 19, 20
For each entry below, report its shrunken log2 fold change value.
Numbers only.

RRIRNRPPRLPRPRPRPTSLPRP; -0.0597
RRIRSRPPRLPRPRPRPWHIPRP; -0.0156
RRIRRRPPRLPRPRPRPRQYPRP; -0.191
RRIRSRPPRLPRPRPRPLSPPRP; 0.0487

Items follow; give shrunken log2 fold change for each.
1. RRIRYRPPRLPRPRPRPRYNPRP
2. RRIRFRPPRLPRPRPRPTISPRP
3. RRIRNRPPRLPRPRPRPMGCPRP
4. RRIRGRPPRLPRPRPRPFDNPRP
5. RRIRLRPPRLPRPRPRPAVDPRP
6. RRIRSRPPRLPRPRPRPHLWPRP
7. RRIRTRPPRLPRPRPRPFLMPRP
8. RRIRTRPPRLPRPRPRPGNKPRP

1. -0.339
2. -0.611
3. -0.187
4. 0.23
5. 0.163
6. -0.0232
7. -0.378
8. -0.0505

Look up shrunken log2 fold change for the entries below, preserving their order.
1. RRIRCRPPRLPRPRPRPGVVPRP
2. RRIRTRPPRLPRPRPRPFNQPRP
3. RRIRPRPPRLPRPRPRPEYEPRP
4. RRIRLRPPRLPRPRPRPRKEPRP
5. RRIRWRPPRLPRPRPRPMCNPRP

1. 0.147
2. -0.163
3. -0.0375
4. 0.325
5. -0.181

Where these numbers come from: the supplement of paper PMC9112550
